Examples of compounds with documented Selectivity follow.
assay: Selectivity as ratio of inhibitory concentration for NFF cell line versus MM96L cell line; format: functional, Homo sapiens

>  <Compound String>
O=C(CCCSC[C@H](NC(=O)c1ccccc1C(=O)c1ccccc1)C(=O)NCc1ccccc1)NO

>  <Selectivity>
1.3

$$$$
>  <Compound String>
COc1cc(OC)cc(C(=O)N[C@@H](CSCCCC(=O)NO)C(=O)NCc2ccccc2)c1

>  <Selectivity>
2.6

$$$$
>  <Compound String>
O=C(CCCSC[C@H](NC(=O)c1ccco1)C(=O)NCc1ccccc1)NO

>  <Selectivity>
3.1

$$$$
>  <Compound String>
O=C(CCCSC[C@H](NC(=O)C(c1ccccc1)c1ccccc1)C(=O)NCc1ccccc1)NO

>  <Selectivity>
2.4

$$$$
>  <Compound String>
O=C(CCCSC[C@H](NC(=O)C1CCCCC1)C(=O)NCc1ccccc1)NO

>  <Selectivity>
2

$$$$
>  <Compound String>
O=C(CCCSC[C@H](NC(=O)c1ccc(Br)cc1)C(=O)NCc1ccccc1)NO

>  <Selectivity>
4.2

$$$$
>  <Compound String>
O=C(CCCSC[C@H](NC(=O)c1cccs1)C(=O)NCc1ccccc1)NO

>  <Selectivity>
3.6

$$$$
>  <Compound String>
O=C(CCCSC[C@H](NC(=O)c1ccc2ccccc2c1)C(=O)NCc1ccccc1)NO

>  <Selectivity>
1.9

$$$$
>  <Compound String>
Cc1cc(C)cc(C(=O)N[C@@H](CSCCCC(=O)NO)C(=O)NCc2ccccc2)c1

>  <Selectivity>
5.5

$$$$
>  <Compound String>
O=C(CCCSC[C@H](NC(=O)c1cccc2ccccc12)C(=O)NCc1ccccc1)NO

>  <Selectivity>
0.8

$$$$
>  <Compound String>
COc1ccc(CCC(=O)N[C@@H](CSCCCC(=O)NO)C(=O)NCc2ccccc2)cc1

>  <Selectivity>
2

$$$$
>  <Compound String>
O=C(CCCSC[C@H](NC(=O)Cc1cccc2ccccc12)C(=O)NCc1ccccc1)NO

>  <Selectivity>
3.7

$$$$
>  <Compound String>
O=C(CCCSC[C@H](NC(=O)c1ccc(-c2ccccc2)cc1)C(=O)NCc1ccccc1)NO

>  <Selectivity>
3.1

$$$$
>  <Compound String>
O=C(CCCSC[C@H](NC(=O)CCc1ccccc1)C(=O)NCc1ccccc1)NO

>  <Selectivity>
2.9

$$$$
>  <Compound String>
O=C(/C=C/c1ccccc1)N[C@@H](CSCCCC(=O)NO)C(=O)NCc1ccccc1

>  <Selectivity>
4

$$$$
>  <Compound String>
O=C(CCCSC[C@H](NC(=O)CCCc1ccccc1)C(=O)NCc1ccccc1)NO

>  <Selectivity>
2.2

$$$$
